Where do these numbers come from? They come from patent US20250304550A1.

Target: BRDT-BD1 (Homo sapiens (Human), UniProt Q58F21)
Test: AlphaScreen bromodomain proximity assay (biotinylated JQ1 competition)
Assay type: binding
Conditions: BD1 selectivity, AlphaScreen IC50 ratio
molecules and their reported BRDT-BD1 vs. BRDT-BD2 fold

Molecule | Reading Unit | BRDT-BD1 vs. BRDT-BD2 fold
CNC(=O)C(CC1CCN(C(=O)Cc2ccc3[nH]c(=O)cc(C)c3c2)CC1)NC(=O)c1ccccn1 (stereo not shown) [Compound 11] | fold | 960
Cc1ccc(-c2ccc(C(=O)NC(C)CC3CCN(C(=O)Cc4ccc5[nH]c(=O)cc(C)c5c4)CC3)nc2)c(C)c1 (stereo not shown) [Compound 14] | fold | 756
Cc1ccc(-c2ccc(C(=O)NCCC3CCN(C(=O)Cc4ccc5[nH]c(=O)cc(C)c5c4)CC3)nc2)c(C)c1 [Compound 15] | fold | 2012
Cc1cc(=O)[nH]c2ccc(CC(=O)N3CCC(CCNC(=O)c4ccccn4)CC3)cc12 [Compound 16] | fold | 192
CNC(=O)C(CC1CCN(C(=O)Cc2ccc3[nH]c(=O)cc(C)c3c2)CC1)NC(=O)c1ccc(-c2ccc(C)cc2C)cn1 (stereo not shown) [Compound 1] | fold | 2246
Cc1cc(=O)[nH]c2ccc(CC(=O)N3CCN(CCNC(=O)c4ccccn4)CC3)cc12 [Compound 21] | fold | 13.8
CNC(=O)[C@H](CC1CCN(C(=O)Cc2ccc3[nH]c(=O)cc(C)c3c2)CC1)NC(=O)c1ccc(-c2ccc(C)cc2C)cn1 [Compound 3] | fold | 65
CNC(=O)C(CC1CCN(C(=O)Cc2ccc3[nH]c(=O)cc(C)c3c2)CC1)NC(=O)c1ccc(C(F)(F)F)cn1 (stereo not shown) [Compound 12] | fold | 513
Cc1cc(=O)[nH]c2ccc(CC(=O)N3CCC(CCNC(=O)c4ccccc4)CC3)cc12 [Compound 17] | fold | 70

====

Molecular target: BRD2-BD1 (Homo sapiens (Human), UniProt P25440)
Sequence (P25440 74-180): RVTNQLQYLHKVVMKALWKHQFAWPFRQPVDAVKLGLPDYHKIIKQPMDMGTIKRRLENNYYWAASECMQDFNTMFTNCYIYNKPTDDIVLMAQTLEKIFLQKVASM
Test: BromoKdELECT assay
Conditions: printed as BRD2-BDT1
Observation Type: IC50 (nM)

Compound | Reading Unit | Numeric Value
CNC(=O)[C@@H](CC1CCN(C(=O)Cc2ccc3[nH]c(=O)cc(C)c3c2)CC1)NC(=O)c1ccc(-c2ccc(C)cc2C)cn1 [Compound 2] | nM | 0.26

====

Target: BRDT-BD1 (Homo sapiens (Human), UniProt Q58F21)
Experiment: AlphaScreen bromodomain proximity assay (biotinylated JQ1 competition)
Format: binding
Conditions: BD1 selectivity, AlphaScreen IC50 ratio
Observation Type: BRDT-BD1 vs. BRDT-BD2 fold

Query Smiles | Observation Type | Result
CNC(=O)[C@@H](CC1CCN(C(=O)Cc2ccc3[nH]c(=O)cc(C)c3c2)CC1)NC(=O)c1ccc(-c2ccc(Cl)cc2)cn1 | BRDT-BD1 vs. BRDT-BD2 fold | 6,633 fold
CNC(=O)[C@@H](CC1CCN(C(=O)Cc2ccc3[nH]c(=O)cc(C)c3c2)CC1)NC(=O)c1ccc(-c2ccc(C)cc2C)cn1 | BRDT-BD1 vs. BRDT-BD2 fold | ~5000 fold
CNC(=O)[C@@H](CC1CCN(C(=O)Cc2ccc3[nH]c(=O)ccc3c2)CC1)NC(=O)c1ccc(-c2ccccc2)cn1 | BRDT-BD1 vs. BRDT-BD2 fold | 3,875 fold
CNC(=O)[C@@H](CC1CCN(C(=O)Cc2ccc3[nH]c(=O)cc(C)c3c2)CC1)NC(=O)c1ccc(-c2ccc(Cl)c(F)c2)cn1 | BRDT-BD1 vs. BRDT-BD2 fold | 4,799 fold
